B1: TPR 5TU (parent)
chain: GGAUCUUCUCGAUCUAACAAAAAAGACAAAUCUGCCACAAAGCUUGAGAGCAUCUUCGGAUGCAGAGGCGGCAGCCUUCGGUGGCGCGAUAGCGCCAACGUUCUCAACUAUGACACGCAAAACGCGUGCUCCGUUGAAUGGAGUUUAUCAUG

Variants of: B1
Experiment: polymerase ribozyme fitness, log enrichment relative to wild type (log ratio); higher = more active; in vitro selection for triplet polymerase activity
Fewer inactive variants are shown than the library holds.
A collection of variants and their measured polymerase ribozyme fitness (log ratio)

The cases that follow already have their polymerase ribozyme fitness (log ratio) on record.
Form field: reported polymerase ribozyme fitness (log ratio) of C43A G80C G94U
≤ -4.2

Quick check: polymerase ribozyme fitness (log ratio) of A19U C51U C54A C85G C132G ?
≤ -4.2

polymerase ribozyme fitness (log ratio) lookup needed for A24U A37U C51A C87U A98U G100U , thanks.
≤ -4.2

polymerase ribozyme fitness (log ratio) lookup needed for G67A A73C C87G , thanks.
≤ -4.2

Item U53A G70C C76A G86U A98U has what recorded polymerase ribozyme fitness (log ratio)?
≤ -4.2

Others:
Which value of polymerase ribozyme fitness (log ratio) has been reported for G48C C76A C93U G94A A138C G140A U146G in the records?
≤ -4.2

May I ask what polymerase ribozyme fitness (log ratio) has been recorded for A12U C36G G92C A147G ?
≤ -4.2

Could you share which polymerase ribozyme fitness (log ratio) value was measured for U13A C54G G68A C75G C76G U90G C95G A119U ?
≤ -4.2
